assayed target: T1, DGI-2 polypeptide (UniProt Q15004 1-111, limits assumed)
T1 construct: Vector-derived residues or tag of pIVEX2.3 are not described for this construct; also called KIAA0101
T1 sequence (looked up): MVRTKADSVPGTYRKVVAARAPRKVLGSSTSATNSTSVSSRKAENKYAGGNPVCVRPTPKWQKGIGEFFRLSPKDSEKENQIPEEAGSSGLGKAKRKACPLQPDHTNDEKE
procedure details: phage ELISA, 405 nm; DGI-2 signal over LDH signal
// DGI-2/LDH (OD) lookup, one value per entry
Output spec: scalar in ratio, unitless text.

Recorded results for 2 binders are shown here.
SLSLYWDAQVGCEVFWGYCVAAAGAPVPYPDPLEPRP (not shown: phage gene III coat protein (pCANTAB5E)) [DGI-2-20R-3-C10]
2.1
DGI-2-40F-4-F12 (not shown: phage gene III coat protein (pCANTAB5E)) peptide: GLYRRAGDASVGFSRWGRFDCQVYFSVECLLGSSWGGYSAAAGAPVPYPDPLEPRP
2.5

Inquiry: Given LSHPMSPLRAASQMALTQGVAAAGAPVPYPDPLEPRP (not shown: phage gene III coat protein (pCANTAB5E)) [DGI-2-20R-4-H7] , state its recorded DGI-2/LDH (OD).
Reply text: 2.6

Inquiry: And what about the binder LSVFRPGQFPHVGARGVSRTAAAGAPVPYPDPLEPRP (not shown: phage gene III coat protein (pCANTAB5E)) [DGI-2-20R-4-G32] ?
Reply text: 1.2

Inquiry: And what about the binder RNWLDKDCVWMGDCGARAGEAAAGAPVPYPDPLEPRP (not shown: phage gene III coat protein (pCANTAB5E)) [DGI-2-20F-4-E3] ?
Reply text: 4.1

Inquiry: And what about the binder LSRIWRGVIESAREVESRGIAAAGAPVPYPDPLEPRP (not shown: phage gene III coat protein (pCANTAB5E)) [DGI-2-20F-3-B1] ?
Reply text: 1.2
